molecular target: human activated protein C (human, UniProt P04070 43-197; P04070 212-461); experiment: cell-based or functional assay
measurement.type: Mean clotting time (s), FVIII-deficient plasma, APC-antibody concentration 5 ug/ml
Just the number in s, nothing appended.

// sample Humanized antibody 14 (HAPC-14) (antibody, V domains shown, also called Humab001-14; NO; 14 antibody) VH: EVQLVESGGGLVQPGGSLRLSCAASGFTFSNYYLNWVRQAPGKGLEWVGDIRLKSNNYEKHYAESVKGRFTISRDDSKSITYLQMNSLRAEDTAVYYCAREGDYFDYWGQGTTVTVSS VL: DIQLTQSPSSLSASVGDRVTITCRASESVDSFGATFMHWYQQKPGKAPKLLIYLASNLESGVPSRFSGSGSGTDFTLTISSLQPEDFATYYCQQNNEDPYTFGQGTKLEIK , its Mean clotting time (s), FVIII-deficient plasma, APC-antibody concentration 5 ug/ml was 324

Just so you know, measured Mean clotting time (s), FVIII-deficient plasma, APC-antibody concentration 5 ug/ml for HAPC-14-5 (antibody, V domains shown, Whole IgG, backbone hIgG1; also called HPAC 14-5) VH: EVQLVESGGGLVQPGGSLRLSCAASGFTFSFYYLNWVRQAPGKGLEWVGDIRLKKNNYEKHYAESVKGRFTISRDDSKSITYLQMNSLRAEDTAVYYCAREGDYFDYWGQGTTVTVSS VL: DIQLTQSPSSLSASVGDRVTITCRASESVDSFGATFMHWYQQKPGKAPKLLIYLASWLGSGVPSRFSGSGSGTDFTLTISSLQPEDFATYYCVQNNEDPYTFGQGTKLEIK came out at 171

Mean clotting time (s), FVIII-deficient plasma, APC-antibody concentration 5 ug/ml recorded for this binder, HAPC-14-2 (antibody, V domains shown, Whole IgG, backbone hIgG1; also called HPAC 14-2) VH: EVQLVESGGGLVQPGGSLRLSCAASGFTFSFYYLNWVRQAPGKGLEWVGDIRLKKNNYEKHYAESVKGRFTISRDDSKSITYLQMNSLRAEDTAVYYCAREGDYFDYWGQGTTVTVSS VL: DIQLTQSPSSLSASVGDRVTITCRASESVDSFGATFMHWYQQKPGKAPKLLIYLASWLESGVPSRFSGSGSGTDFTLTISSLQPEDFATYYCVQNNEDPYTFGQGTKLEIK , is 159

Quick note, Mean clotting time (s), FVIII-deficient plasma, APC-antibody concentration 5 ug/ml for HAPC-14-1 (antibody, V domains shown, Whole IgG, backbone hIgG1; also called HPAC14-1) VH: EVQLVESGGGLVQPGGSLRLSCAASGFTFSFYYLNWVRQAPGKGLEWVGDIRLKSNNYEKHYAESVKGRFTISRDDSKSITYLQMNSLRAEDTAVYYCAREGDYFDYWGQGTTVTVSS VL: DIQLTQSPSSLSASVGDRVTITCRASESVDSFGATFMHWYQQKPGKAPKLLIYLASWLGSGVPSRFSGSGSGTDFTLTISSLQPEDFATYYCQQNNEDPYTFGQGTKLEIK landed at 166

Measured Mean clotting time (s), FVIII-deficient plasma, APC-antibody concentration 5 ug/ml of Humanized antibody 13 (HAPC-13) (antibody, V domains shown, also called Humab001-13; NO; 13 antibody) VH: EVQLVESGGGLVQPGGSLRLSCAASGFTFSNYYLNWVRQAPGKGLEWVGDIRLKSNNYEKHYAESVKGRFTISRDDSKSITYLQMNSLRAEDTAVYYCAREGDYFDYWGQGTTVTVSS VL: DIQMTQSPSSLSASVGDRVTITCRASESVDSFGATFMHWYQQKPGKAPKLLIYLASNLESGVPSRFSGSGSGTDFTLTISSLQPEDFATYYCQQNNEDPYTFGQGTKLEIK : 301
